- ASSAY_SYSTEM: LpFAT A (FAT A from LEMPA; acyl-ACP thioesterase) (Lemna aequinoctialis, UniProt Z9A7P1QTQ5)
- Construct: chloroplast transit peptide replaced by N-terminal 6xHis-tag; pET24; E. coli BL21Star(DE3); Ni-NTA purified
- EXPERIMENTAL_PROTOCOL: fluorescence polarization competition with fluorescent tracer
- Type: binding
- RECORDED_CONDITIONS: 25 mM potassium phosphate pH 7.3, 200 mM NaCl, 0.01% Triton X-100, 2 nM tracer, room temperature; value is negative log
Mark 1 (yes) for reported pI50 of 6 or greater; mark 0 (no) for anything smaller.

CC(=O)N1CSc2cc(Br)c(-c3ccccc3C)nc21 [14c] | 0 (no)
BN1CSc2cc(Br)c(-c3ccccc3C)nc21 [17d, aminoborane 17d] | 0 (no)
Cc1ccccc1-c1nc2c(cc1C)SCN2C(=O)C(C)C [16f] | 0 (no)

Please tell me: is the molecule Brc1cc2c(nc1-c1ccccc1)NCS2 [13a] at or over 6 in terms of pI50?
0 (no)

Determine whether this molecule has pI50 no lower than 6: Cc1ccccc1-c1nc2c(cc1Br)SCN2 [13c]
0 (no)

Is it the case that Cc1cc2scnc2nc1-c1ccccc1F [compound 5, reference compound] has pI50 reaching or exceeding 6?
1 (yes)

Decide: pI50 of CC(=O)N1CSc2cc(Br)c(-c3ccccc3)nc21 [14a] >= 6?
0 (no)

Identify whether the reported pI50 of the following molecule is 6 or greater: CC(C)C(=O)N1CSc2cc(Br)c(-c3ccccc3F)nc21 [14b]
0 (no)

State whether the measured pI50 reaches 6, counting equality as reaching it, for CC(=O)N1CSc2cc(C)c(-c3ccccc3)nc21 [16a]
0 (no)

For this molecule, is measured pI50 6 or higher? Cc1ccccc1-c1nc2c(cc1C)SCN2 [7c]
1 (yes)

---

Measured pI50 by item
- ASSAY_SYSTEM: LpFAT A (FAT A from LEMPA; acyl-ACP thioesterase) (Lemna aequinoctialis, UniProt Z9A7P1QTQ5)
- Construct: chloroplast transit peptide replaced by N-terminal 6xHis-tag; pET24; E. coli BL21Star(DE3); Ni-NTA purified
- EXPERIMENTAL_PROTOCOL: fluorescence polarization competition with fluorescent tracer
- Assay type: binding
- RECORDED_CONDITIONS: 25 mM potassium phosphate pH 7.3, 200 mM NaCl, 0.01% Triton X-100, 2 nM tracer, room temperature; value is negative log
Give the value as a plain number.

Check out these entries, answers already filled in.
Cc1ccsc1C1=NOC(C)(COCc2c(F)cccc2F)C1 (stereo not drawn) [compound 2, methiozolin, reference compound] | 7.1
Cc1cc2c(nc1-c1ccccc1)N(C(=O)C(C)C)CS2 [16b] | 4.7
CC(=O)N1CSc2cc(C)c(-c3ccccc3C)nc21 [16e] | 4.1

State the recorded pI50 for this entry: CC(=O)N1CSc2cc(C)c(-c3ccccc3F)nc21 [16c]
5.3

Could you tell me which pI50 is on file for Cc1cc2c(nc1-c1ccccc1F)N(C(=O)C(C)C)CS2 [16d] ?
4.7

What value of pI50 has been recorded for this entry: Fc1ccccc1-c1nc2c(cc1Br)SCN2 [13b]
7.3

Looking for the measured pI50 of `Cc1cc2c(nc1-c1ccccc1)NCS2` , can you help?
5.9

Returns the measured pI50 for the input compound. Input: Cc1ccccc1COC1CC2(C(C)C)CCC1(C)O2 (stereo not drawn) [compound 1, cinmethylin, reference compound]
6.8
